Listing of recorded Kd by entry.
assayTarget: T1, recombinant human MCL-1ΔNΔC (amino acids 172-320) (human, UniProt Q07820 172-320)
T1 construct: also called rMCL-1; MCL-1NC
T1 sequence (Q07820 172-320 limits assumed, stated change not applied): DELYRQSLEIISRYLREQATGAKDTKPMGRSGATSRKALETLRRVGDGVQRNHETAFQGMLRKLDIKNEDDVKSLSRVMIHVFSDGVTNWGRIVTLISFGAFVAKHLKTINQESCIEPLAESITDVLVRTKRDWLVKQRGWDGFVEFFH
protocolDescription: FPA, FITC-SAHB against MCL-1ΔNΔC
Bridges are numbered along the chain shown (N, C = ends). Where no end group is shown, it is not given here. [ ]: non-standard residue; d: D form. The star is where a group is joined. FITC = O=C1OC2(c3ccc(O)cc3Oc3cc(O)ccc32)c2ccc(NC(=S)*)cc21; S5 = C=CCCC[C@](C)(N)C(=O)O; Nle = CCCC[C@H](N)C(=O)O

Look over these answered cases.
binder	Kd
{FITC}-RLAEVSAVLL[S5]LGD[S5]LE[Nle]IR (staple 11-15) [BOK SAHB]	< 50 nM
{FITC}-ASTKKLSESLK[S5]IGD[S5]LDSN (staple 12-16, domain: BH3) [BAX SAHB]	< 50 nM

Next binder, Kd to be filled in.
Give the measured Kd of {FITC}-QVGRQLA[S5]IGD[S5]INRRYD (staple 8-12, also called FITC-BAK SAHB; BAK BH3 helix) [BAK SAHB] .
< 50 nM
